Below, each of the variants is paired with its reported abundance fitness value.
B1: POU domain, class 5, transcription factor 1, residues 134 to 212; numbered along this chain, Q01860 (parent)
chain: EESQDIKALQKELEQFAKLLKQKRITLGYTQADVGLTLGVLFGKVFSQTTICRFEALQLSFKNMCKLRPLLQKWVEEAD

- Variants of: B1
- ASSAY PROTOCOL: abundance fitness (aPCA) (normalised: wild type 0, dead -1); higher = more abundant; growth selection in yeast, the domain comes from the species named
- TEST CONTEXT: Homo sapiens
ENDPOINT: abundance fitness

VARIANT ID	MEASURED RESULT
G28H	0.386
C65R	-0.18
V40I	0.038
S3L	0.163
T30M	-0.526
E14F	-0.056
V40D	-0.621
I6Q	0.063
C52F	-0.343
R53T	-0.356
G39R	-0.318
Q15K	-0.631
L27P	-0.274
T37F	0.319
K62C	-0.489
L59M	-0.054
T37P	-0.621
G35L	-0.769
E77V	-0.161
F16W	-0.341
Q10T	-0.184
N63A	0.045
K66P	-0.51
E12D	-0.357
L13Q	-0.641
T37R	0.339
F46I	0.107
D33S	-0.572
L27E	-0.842
K18R	-0.222
A17T	0.228
Q31L	-0.093
V45L	-0.338
C52N	0.175
T30R	-0.249
A8L	-0.318
F46R	-0.429
E12T	-0.405
V34I	-0.031
L70Y	0.262
Q72P	-0.438
E14A	0.143
Q31G	-0.402
F61E	-0.8
S47L	-0.756
L59E	0.101
